- Test system: MDA-MB-435 melanoma
- assay: NCI-60 one-dose screen, 48 h
- measurement_context: 10 µM
The panel holds about 83,000 compounds, 20% with a hit somewhere; the sample as a whole holds those more often. Calls of active or inactive are those of the source. Rule for the calls: active = growth percent below 10; inactive = the rest.
Choose one outcome from this list and give only that: TRUE (active), FALSE (inactive)

Use the examples below as a reference point.
{"molecule": "CCOC(=O)c1cc2c(n1Cc1cccc(OC)c1)-c1oncc1CC2", "label_class": "TRUE"}
{"molecule": "CC(C)CCN(CCCNc1c2c(nc3cc(Cl)ccc13)CCCC2)CCC(C)C", "label_class": "FALSE"}
{"molecule": "CCN(CC)CCOC(=O)c1ccc(NC(=O)Nc2cccc(Cl)c2)cc1", "label_class": "FALSE"}
{"molecule": "CCCCCCCCCCCC(=O)NCCCN(C)C", "label_class": "FALSE"}
{"molecule": "c1ccc(CNc2nc(Nc3ccc(-c4nc5ccccc5[nH]4)cc3)c3cn[nH]c3n2)cc1", "label_class": "TRUE"}
{"molecule": "COc1cccc2c1O/C(=C\\c1ncc([N+](=O)[O-])n1C)C2=O", "label_class": "TRUE"}

[in] Hi, do you know how CC(=O)CS(C)(=O)=O came out in this test?
[out] FALSE

[in] Same question for Nc1ccccc1NC(=O)CCCCCCC(=O)Nc1ccc2c(c1)/C(=C/c1ccc[nH]1)C(=O)N2 please.
[out] FALSE

[in] Try this molecule next: O=C/C=C/c1ccc([N+](=O)[O-])cc1Cl
[out] FALSE

[in] Entry Cc1cccc2c1O/C(=C\c1ncc([N+](=O)[O-])n1C)C2=O please
[out] TRUE

[in] Please do the same for COc1cc(OC)cc(N2CCN(C(=O)Nc3nc4cc(F)ccc4nc3OC)CC2)c1 as well.
[out] TRUE

[in] How about COc1ccc(C(=O)n2nc(CC(=O)NCc3ccccc3)nc2N)cc1 ?
[out] FALSE

* * *

- Tested on: MALME-3M melanoma
- assay: NCI-60 one-dose screen, 48 h
- measurement_context: 10 µM
The panel holds about 83,000 compounds, 20% with a hit somewhere; the sample as a whole holds those more often. Calls of active or inactive are those of the source. Rule for the calls: active = growth percent below 10; inactive = the rest.
Permitted responses: true = active, false = inactive

Observe how each entry below is paired with its result.
{"compound": "CCc1nn2c(-c3ccccc3)c(-c3cc(OC)c(OC)c(OC)c3)nc2s1", "target_of_assay": "MALME-3M melanoma", "label_class": "false"}
{"compound": "CCOCC[P+](c1ccccc1)(c1ccccc1)c1ccccc1", "target_of_assay": "MALME-3M melanoma", "label_class": "false"}
{"compound": "CCc1cc2n(n1)-c1ncc(C(=O)OC)cc1Oc1ccccc1-2", "target_of_assay": "MALME-3M melanoma", "label_class": "false"}
{"compound": "CCOC(=O)CSC(=S)SCC(=O)OCC", "target_of_assay": "MALME-3M melanoma", "label_class": "false"}
{"compound": "COC(=O)C1(C(=O)OC)C2C(=O)C3C(C21)C3(C(=O)OC(C)(C)C)C(=O)OC(C)(C)C (stereo unspecified)", "target_of_assay": "MALME-3M melanoma", "label_class": "false"}

Read the next record carefully.
[in] Please share the test call associated with CCCCCCOc1ccc(/C=C/C(=O)c2ccc(B(O)O)cc2)cc1 .
[out] false

* * *

- System: A498 renal
- assay: NCI-60 one-dose screen, 48 h
- measurement_context: 10 µM
The panel holds about 83,000 compounds, 20% with a hit somewhere; the sample as a whole holds those more often. The source made the active and inactive calls. Rule for the calls: active = growth percent below 10; inactive = the rest.
Outcome field: choose from YES = active, NO = inactive

These recorded examples may help you get a feel for the data.
{"compound": "Nc1nsc(C(=O)c2ccc(O)cc2)n1", "target_of_assay": "A498 renal", "label_class": "NO"}
{"compound": "CC(C)c1[nH]nc2c(NCc3ccc(-c4ccccn4)cc3)nc(SCCN)nc12", "target_of_assay": "A498 renal", "label_class": "YES"}
{"compound": "CC(C)c1[nH]nc2c(NCc3ccc(-c4ccccn4)cc3)nc(SCCN(C)C)nc12", "target_of_assay": "A498 renal", "label_class": "YES"}
{"compound": "COc1cccc(C(=O)N(c2ccc(F)c(F)c2)C(C(=O)NC(C)(C)C)c2cc3c(C)cc(C)cc3nc2Cl)c1 (configuration not stated)", "target_of_assay": "A498 renal", "label_class": "NO"}
{"compound": "CS(=O)(=O)Nc1ccc(OCc2nnc(-c3ccc(Cl)cc3)o2)c(F)c1", "target_of_assay": "A498 renal", "label_class": "NO"}
{"compound": "CCOC(=O)C(CCC1=NC(C)(C)CC(C)O1)C(=O)OCC (configuration not stated)", "target_of_assay": "A498 renal", "label_class": "NO"}
{"compound": "N#C/C(=C\\N1C(=O)/C(=C/c2cccc([N+](=O)[O-])c2)SC1=S)c1nc2ccccc2s1", "target_of_assay": "A498 renal", "label_class": "NO"}
{"compound": "CCc1ccc(-c2nnc(COc3ccc(-c4nc5ccc(C)cc5[nH]4)cc3OC)o2)cc1", "target_of_assay": "A498 renal", "label_class": "NO"}
{"compound": "O=C(Nc1cccc(Cl)c1)OCC(COC(=O)Nc1cccc(Cl)c1)(COC(=O)Nc1cccc(Cl)c1)[N+](=O)[O-]", "target_of_assay": "A498 renal", "label_class": "NO"}
{"compound": "C/C(=N\\NC(=O)c1sc(=S)n(C)c1N)c1cc2ccccc2o1", "target_of_assay": "A498 renal", "label_class": "NO"}

[in] Which outcome was entered for the compound Cc1nn2c(/C=C3/C(=O)Nc4ccc(Cl)cc43)c(-c3ccccc3)nc2s1 in this test?
[out] NO

[in] Here is the next compound: O=[N+]([O-])c1ccc(-c2nc(Cl)c3c(n2)CCCC3)o1
[out] NO

[in] Next: CC(C)C[C@H](NC(=O)Cn1ccc2ccccc2c1=O)B(O)O
[out] NO

[in] Now the same for COc1cccc2c1C(=O)c1c(O)c3c(c(O)c1C2=O)C[C@@](O)(C(=O)COC(=O)c1ccccc1)C[C@@H]3OC1CC(N)C(O)C(C)O1 (some centres not stated)
[out] YES

* * *

- Test system: HCT-15 colon
- assay: NCI-60 one-dose screen, 48 h (100 = growth as untreated, 0 = no growth, -100 = all killed)
- measurement_context: 10 µM
Compounds without any hit were thinned out: in the full panel of roughly 83,000, 20% have a hit.
Each item that follows carries a reported growth.
Please state the figure in %; there is no need to write the unit.

{"smiles_entry": "CCOc1nc(-c2ccccc2)cc2c(O)c(C(=O)NC(C)C)[nH]c(=O)c12", "readout": "growth", "value": 99.7}
{"smiles_entry": "COc1cc(-c2nc(-c3nnc(-c4cccnc4)o3)c3ccccn23)cc(OC)c1OC", "readout": "growth", "value": 111}
{"smiles_entry": "CCN(CC)CCCOC(=O)Nc1ccccc1Cl", "readout": "growth", "value": 111}
{"smiles_entry": "COc1ccc(Cn2cc3c(c2-c2ccccc2)CC(C)(C)c2cnoc2-3)cc1", "readout": "growth", "value": 34.8}
{"smiles_entry": "Cn1cnc([N+](=O)[O-])c1Sc1nnc(-c2ccccc2)c(-c2ccccc2)n1", "readout": "growth", "value": 56}

[in] Which growth is listed for C=CCn1c(C)nc2cc(Nc3nc(Nc4ccc5nc(C)n(CC=C)c5c4)c4ccccc4n3)ccc21 ?
[out] -76.2

* * *

# reported growth; entries follow
- System: MDA-MB-231 breast
- assay: NCI-60 one-dose screen, 48 h (100 = growth as untreated, 0 = no growth, -100 = all killed)
- measurement_context: 10 µM
The panel holds about 83,000 compounds, 20% with a hit somewhere; the sample as a whole holds those more often.
Answer format: numeric, % implied, no suffix.

{"compound": "COc1ccc(-c2cc(/C=C/C(=O)c3ccc(N)cc3)[nH]n2)cc1OC", "target_of_assay": "MDA-MB-231 breast", "growth, %": 38.8}
{"compound": "CCCCOCCOCCOCc1cc2c(cc1Br)OCO2", "target_of_assay": "MDA-MB-231 breast", "growth, %": 97.1}
{"compound": "O=C(Nc1cccc(C(F)(F)F)c1)C(Cl)Cl", "target_of_assay": "MDA-MB-231 breast", "growth, %": 127}
{"compound": "CN(C)c1ccc2c(c1)OC(N)=C(C#N)C2c1ccc2c(c1)CCO2 (stereo unspecified)", "target_of_assay": "MDA-MB-231 breast", "growth, %": 21.7}
{"compound": "CCOc1nc(-c2ccccc2)cc2c(O)c(C(=O)NCCCO)[nH]c(=O)c12", "target_of_assay": "MDA-MB-231 breast", "growth, %": 102}

Kindly review the next compound as well.
[in] Query (compound): COc1ccc2oc(=O)cc(C(c3ccc[nH]3)c3ccc[nH]3)c2c1 ; field requested: growth
[out] 13.2
